target-desc: hERG (KCNH2) (Homo sapiens)
Sequence (Q12809 whole entry): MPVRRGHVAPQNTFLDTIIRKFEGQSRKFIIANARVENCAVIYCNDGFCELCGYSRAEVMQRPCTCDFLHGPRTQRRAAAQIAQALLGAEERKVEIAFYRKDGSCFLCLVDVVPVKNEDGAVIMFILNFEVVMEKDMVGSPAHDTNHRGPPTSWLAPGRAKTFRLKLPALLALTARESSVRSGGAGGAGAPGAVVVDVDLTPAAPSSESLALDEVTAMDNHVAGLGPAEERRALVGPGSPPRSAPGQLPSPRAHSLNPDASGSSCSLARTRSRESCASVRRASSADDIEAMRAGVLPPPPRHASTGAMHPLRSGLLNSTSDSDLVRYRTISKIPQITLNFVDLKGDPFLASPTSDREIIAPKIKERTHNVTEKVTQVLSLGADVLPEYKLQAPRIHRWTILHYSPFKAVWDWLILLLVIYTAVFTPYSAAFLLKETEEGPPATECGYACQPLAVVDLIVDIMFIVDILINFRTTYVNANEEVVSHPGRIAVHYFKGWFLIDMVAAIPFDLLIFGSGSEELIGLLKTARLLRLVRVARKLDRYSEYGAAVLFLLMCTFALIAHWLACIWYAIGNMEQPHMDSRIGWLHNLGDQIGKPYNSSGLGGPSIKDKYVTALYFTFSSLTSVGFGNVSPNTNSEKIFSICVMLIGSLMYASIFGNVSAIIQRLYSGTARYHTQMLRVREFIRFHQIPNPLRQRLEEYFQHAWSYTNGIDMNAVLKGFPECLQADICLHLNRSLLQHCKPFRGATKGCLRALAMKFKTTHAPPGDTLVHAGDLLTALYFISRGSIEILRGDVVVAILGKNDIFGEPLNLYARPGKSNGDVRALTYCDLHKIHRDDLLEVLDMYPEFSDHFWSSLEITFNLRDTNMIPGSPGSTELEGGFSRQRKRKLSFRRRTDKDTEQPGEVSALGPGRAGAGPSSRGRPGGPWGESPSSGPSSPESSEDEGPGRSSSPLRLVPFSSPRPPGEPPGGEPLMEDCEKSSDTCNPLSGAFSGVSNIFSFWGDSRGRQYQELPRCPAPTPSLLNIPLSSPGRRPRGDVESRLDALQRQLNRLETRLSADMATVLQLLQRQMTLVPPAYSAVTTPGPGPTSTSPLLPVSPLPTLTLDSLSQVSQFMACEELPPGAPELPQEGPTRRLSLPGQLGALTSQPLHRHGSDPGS
method-notes: Inhibition of human ERG channel at 5 ug/ml after 30 mins by rubidium efflux assay
measure: inhibition at 0.5 h, 5 ug/ml (%)
Give a bare numeral; the unit % is implied.

[[record]]
structure_smiles = "Nc1cc(CN2CCC(F)(C(=O)N3CCC(N4c5ccccc5Sc5ccccc54)CC3)CC2)ccn1"
target_desc = "hERG (KCNH2) (Homo sapiens)"
measure = "inhibition at 0.5 h, 5 ug/ml"
endpoint_result = 40

[[record]]
structure_smiles = "COc1ccc2c(c1)CCCN(C1CCN(C(=O)C3(F)CCN(Cc4ccnc(N)c4)CC3)CC1)C2"
target_desc = "hERG (KCNH2) (Homo sapiens)"
measure = "inhibition at 0.5 h, 5 ug/ml"
endpoint_result = 12

[[record]]
structure_smiles = "Nc1cc(CN2CCC(F)(C(=O)N3CCC(N4c5ccccc5Sc5cccnc54)CC3)CC2)ccn1"
target_desc = "hERG (KCNH2) (Homo sapiens)"
measure = "inhibition at 0.5 h, 5 ug/ml"
endpoint_result = 54

[[record]]
structure_smiles = "Nc1cc(CN2CCC(F)(C(=O)N3CCC(N4Cc5ccc(F)cc5C4)CC3)CC2)ccn1"
target_desc = "hERG (KCNH2) (Homo sapiens)"
measure = "inhibition at 0.5 h, 5 ug/ml"
endpoint_result = 4

[[record]]
structure_smiles = "Cc1nnc2n1-c1sccc1CN(C1CCN(C(=O)C3(F)CCN(Cc4ccnc(N)c4)CC3)CC1)C2"
target_desc = "hERG (KCNH2) (Homo sapiens)"
measure = "inhibition at 0.5 h, 5 ug/ml"
endpoint_result = 9


Summary for this compound, Cc1nnc2n1-c1sccc1C(=O)N(C1CCN(C(=O)C3(F)CCN(Cc4ccnc(N)c4)CC3)CC1)C2 : inhibition at 0.5 h, 5 ug/ml is 6

Summary for this compound, COc1ccc2c(c1)CN(C1CCN(C(=O)C3(F)CCN(Cc4ccnc(N)c4)CC3)CC1)CCC2 : inhibition at 0.5 h, 5 ug/ml is 7

Summary for this compound, Cn1c2c(c3ccccc31)CCN(C1CCN(C(=O)C3(F)CCN(Cc4ccnc(N)c4)CC3)CC1)CC2 : inhibition at 0.5 h, 5 ug/ml is 21
